Parameter pIC50: see the listing below.
# target.or.test.system: UniProtKB O00519
# Sequence (O00519 whole entry): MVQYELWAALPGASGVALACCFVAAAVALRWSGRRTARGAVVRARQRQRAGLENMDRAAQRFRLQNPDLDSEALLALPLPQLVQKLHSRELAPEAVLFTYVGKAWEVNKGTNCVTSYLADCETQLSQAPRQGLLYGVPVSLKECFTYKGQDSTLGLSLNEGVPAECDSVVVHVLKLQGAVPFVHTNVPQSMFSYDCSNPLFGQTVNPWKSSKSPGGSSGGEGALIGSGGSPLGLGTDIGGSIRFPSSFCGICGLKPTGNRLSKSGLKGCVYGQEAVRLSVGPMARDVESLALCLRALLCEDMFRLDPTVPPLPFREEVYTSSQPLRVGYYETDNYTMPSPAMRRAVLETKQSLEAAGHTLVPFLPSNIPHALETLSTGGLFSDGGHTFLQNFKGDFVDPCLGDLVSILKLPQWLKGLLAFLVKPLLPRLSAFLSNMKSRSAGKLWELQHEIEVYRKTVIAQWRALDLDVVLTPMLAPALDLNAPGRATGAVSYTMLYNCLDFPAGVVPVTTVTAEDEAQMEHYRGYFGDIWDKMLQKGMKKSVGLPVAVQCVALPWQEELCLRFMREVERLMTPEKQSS
# test.name: Concentration required to inhibit Fatty-acid amide hydrolase (FAAH) at pH 7.0
Formally, pIC50 is defined as -log10 of the concentration c, with c in mol/L.

CCCCCCCOC(=O)CC(=O)CBr	5.68

We next turn to a different compound, shown below.
Please give the measured pIC50 for this compound: `CCCCCC[C@@H](C)OC(=O)CC(=O)CBr` 5.51

Every entry's value here was drawn from ChEMBL document CHEMBL1131510.
